pKi: −log10 of the molar value.
Please consider the recorded pKi for Neurotensin receptor type 1 (Rattus norvegicus) in what follows.
measure-name: pKi

1: COc1cccc(OC)c1-c1cc(C(=O)NC2(C(=O)O)CCCCC2)nn1-c1cccc2ccccc12
2: COc1cccc(OC)c1-c1cc(NC(=O)C2(C(=O)O)CCCCC2)nn1-c1cccc2ccccc12
-- ask I'm curious whether 1 or 2 has the smaller pKi number. Which is it? Choose, then provide that item's label.
-- reply 2

----------
Target: Neurotensin receptor type 2 (Rattus norvegicus, UniProt Q63384)
Sequence (Q63384 whole entry): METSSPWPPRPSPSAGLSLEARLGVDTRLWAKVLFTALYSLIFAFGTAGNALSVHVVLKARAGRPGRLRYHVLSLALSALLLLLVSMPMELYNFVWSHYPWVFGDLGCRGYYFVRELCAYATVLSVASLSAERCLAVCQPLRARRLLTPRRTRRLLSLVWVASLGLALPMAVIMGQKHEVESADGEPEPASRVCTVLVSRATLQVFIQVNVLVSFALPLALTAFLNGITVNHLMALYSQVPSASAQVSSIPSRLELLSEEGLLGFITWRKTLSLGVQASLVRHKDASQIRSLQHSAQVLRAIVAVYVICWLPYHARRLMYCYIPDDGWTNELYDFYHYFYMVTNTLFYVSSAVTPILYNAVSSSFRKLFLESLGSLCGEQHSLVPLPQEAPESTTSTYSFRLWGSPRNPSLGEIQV
pKi: −log10 of the molar value.
measure-name: pKi

1: COc1cccc(OC)c1-c1cc(NC(=O)C2(C(=O)O)CCCCC2)nn1-c1cccc2ccccc12
2: COc1cccc(OC)c1-c1cc(NC(=O)C2(C(=O)O)CCCCC2)nn1-c1ccc(F)cc1
-- ask Between 1 and 2 , whose recorded pKi is greater? Choose, then provide that item's label.
-- reply 1

----------
Please consider the recorded Ki for Neurotensin receptor type 1 (Rattus norvegicus, UniProt P20789) in what follows.

Observe how each entry below is paired with its result.
>  <compound-structure-string>
COc1ccccc1-c1cc(C(=O)NC2(C(=O)O)CCCCC2)nn1-c1ccc(F)cc1

>  <assay-system>
Neurotensin receptor type 1 (Rattus norvegicus, UniProt P20789)
Sequence (P20789 whole entry): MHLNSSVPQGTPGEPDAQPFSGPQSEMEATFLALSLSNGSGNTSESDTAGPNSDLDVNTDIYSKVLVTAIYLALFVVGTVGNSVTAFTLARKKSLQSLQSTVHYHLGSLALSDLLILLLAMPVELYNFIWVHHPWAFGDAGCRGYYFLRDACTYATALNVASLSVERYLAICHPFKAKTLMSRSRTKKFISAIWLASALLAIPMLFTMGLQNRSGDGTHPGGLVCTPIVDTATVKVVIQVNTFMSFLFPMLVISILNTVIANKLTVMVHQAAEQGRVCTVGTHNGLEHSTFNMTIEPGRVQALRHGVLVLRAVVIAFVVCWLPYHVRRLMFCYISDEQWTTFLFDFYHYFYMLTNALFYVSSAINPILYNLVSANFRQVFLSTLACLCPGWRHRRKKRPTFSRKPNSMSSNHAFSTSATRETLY

>  <Ki>
> 25 µM

$$$$
>  <compound-structure-string>
COc1cccc(OC)c1-c1cc(NC(=O)C2(C(=O)O)CCCCC2)nn1-c1ccc(F)cc1

>  <assay-system>
Neurotensin receptor type 1 (Rattus norvegicus, UniProt P20789)

>  <Ki>
> 25 µM

$$$$

Consider the additional molecule presented here.
-- ask Entry under review: `COc1ccccc1-c1cc(NC(=O)C2(C(=O)O)CCCCC2)nn1-c1ccc(F)cc1` . Reported Ki?
-- reply > 25 µM
